- TESTED ON: human CXCR3 (N-delta 4) (Homo sapiens, UniProt P49682)
- Construct: CD8 leader (N); Flag tag; expressed in transfected cells; membrane preparation
- Sequence (P49682 5-368 limits assumed): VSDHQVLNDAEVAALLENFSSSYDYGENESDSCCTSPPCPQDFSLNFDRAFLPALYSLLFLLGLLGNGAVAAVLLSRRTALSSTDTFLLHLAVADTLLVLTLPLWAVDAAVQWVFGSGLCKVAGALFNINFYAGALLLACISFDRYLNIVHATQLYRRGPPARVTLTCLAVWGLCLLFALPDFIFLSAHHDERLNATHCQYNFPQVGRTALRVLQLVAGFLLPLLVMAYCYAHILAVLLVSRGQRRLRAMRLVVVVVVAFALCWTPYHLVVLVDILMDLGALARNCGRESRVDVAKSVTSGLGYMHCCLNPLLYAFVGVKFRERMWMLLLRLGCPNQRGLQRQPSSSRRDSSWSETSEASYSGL
- PROTOCOL NOTES: Human CXCR3 (N-delta 4) Scintillation Proximity Assay (SPA), [125I] IP-10 binding
- ASSAY CONDITIONS: human CXCR3; Ba/F3-hCXCR3 (N-delta 4) membranes, 25 pM [125I] IP-10; read-out: IC50 rating (human)
ENDPOINT NAME: IC50

{"columns": ["STRUCTURE AS SMILES", "TESTED ON", "IC50"],
 "data": [
  ["CC[C@H]1CN(c2nc3ccccc3n2C)CCN1C1CCN(Cc2ccc(Cl)cc2F)CC1", "human CXCR3 (N-delta 4) (Homo sapiens, UniProt P49682)", "> 100 nM"]
]}

Entry under test: `CC[C@H]1CN(c2nc3ncccc3c(=O)n2C2CC2)CCN1C1CCN(Cc2ccc(C(F)(F)F)cc2)CC1` . Its IC50 was < 25 nM
